Hello, the source for this data is the supplement of paper PMC12667976, in case you need it.

B1: library; numbered along this chain (parent)
chain: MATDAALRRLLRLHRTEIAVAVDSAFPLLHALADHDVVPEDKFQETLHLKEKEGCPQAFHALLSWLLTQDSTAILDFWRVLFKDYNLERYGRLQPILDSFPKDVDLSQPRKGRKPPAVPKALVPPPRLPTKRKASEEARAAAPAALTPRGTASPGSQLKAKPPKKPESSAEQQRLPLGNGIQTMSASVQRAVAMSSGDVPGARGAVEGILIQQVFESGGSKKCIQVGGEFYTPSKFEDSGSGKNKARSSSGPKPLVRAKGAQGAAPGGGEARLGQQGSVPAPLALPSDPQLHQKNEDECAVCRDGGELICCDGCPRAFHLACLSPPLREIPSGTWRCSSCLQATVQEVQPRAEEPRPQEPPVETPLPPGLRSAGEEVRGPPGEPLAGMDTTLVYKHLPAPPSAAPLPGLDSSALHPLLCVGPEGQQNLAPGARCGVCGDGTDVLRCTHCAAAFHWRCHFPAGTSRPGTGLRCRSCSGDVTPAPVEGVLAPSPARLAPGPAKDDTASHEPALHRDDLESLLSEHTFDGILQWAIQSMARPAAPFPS

- Variants of: B1
- ASSAY_INFO: AIRE transcriptional activation functional score (insulin promoter-GFP; nonsense median 0, synonymous median 1) (normalised score); higher = higher AIRE activity (more reporter activation)
- EXPERIMENTAL_SETUP: with insulin promoter-GFP reporter in HEK293
AIRE transcriptional activation functional score values by entry
MEASURED_PROPERTY: AIRE transcriptional activation functional score

* E171K | 0.709
* R89V | -3.54
* W531S | 0.218
* A284W | 1.16
* A246I | 0.408
* L444D | 1.55
* R110F | 0.927
* A141D | 1.25
* R190C | 0.414
* C55W | -0.244
* R494F | 0.918
* L177T | 0.252
* P176M | 2.1
* A284T | 0.876
* L444Q | 0.642
* H458I | -0.227
* V345N | 0.989
* L320V | 0.976
* G263A | 0.875
* E136R | -0.203
* V22W | -0.0929
* E45I | -1.78
* L366S | 0.837
* Q425M | 0.974
* C322G | 1.24
* A461E | 0.952
* P176T | 0.957
* K221P | 0.766
* V393L | 1.2
* P163Y | 1.53
* A140V | 1.35
* E207L | 0.143
* E45Q | 1.17
* L392R | 1.06
* A73H | 2.12
* T390P | 0.842
* R272F | 1.09
* P280Q | 1.14
* D288G | 1.14
* L49W | -0.0359
* T46K | -3.42
* G486A | 0.707
* D514K | -0.0487
* R89W | 0.927
* K159G | 0.883
* V484L | 0.509
